These entries and their values trace back to ChEMBL document CHEMBL1121445.

experimentSummary: Partition coefficient (logP)
Format: physicochemical
conditionLabel: octanol/water; read-out: logP
observationType: logP

Please review the entries below; each comes with its answer.
Cc1ccc(/N=C2/C(Nc3ccc(C)c(C)c3)=CC(=O)c3ncccc32)cc1C: 5.6
CCOC(=O)c1ccc(/N=C2/C(Nc3ccc(C(=O)OCC)cc3)=CC(=O)c3ncccc32)cc1: 4.5
O=C1C(=O)c2cccnc2C(Nc2ccccc2)=C1Cl: 1.3
Cc1ccc2c(c1)C(=O)C(CCC(C)C)=C(O)C2=O: 4.26
CCCCCOC1=CC(=O)C(=O)c2ccccc21: 3.38

a = Cc1ccc(NC2=C(Cl)C(=O)C(=O)c3cccnc32)cc1
b = CC1=C(CCC(C)C)C(=O)c2ccccc2C1=O
c = CC1=C(O)C(=O)c2ccccc2C1=O
Write the entries in order, lowest recorded logP first. Provide the labels, sequenced as the question asks. c, a, b
